Item-by-item account of log10 of GR80
# Test system: Echinochloa crus-galli
# experiment description: Post-emergence herbicidal activity against three-leaf stage Echinochloa crus-galli (barnyard grass) under green-house condition by water injection treatment method
# Format: functional
measured metric: log10 of GR80 (log10 of the value in gAi/ha)

[
  {
    "entry smiles": "COc1cnc(OC)n2nc(NS(=O)(=O)c3c(OCCF)cccc3C(F)(F)F)nc12",
    "target desc": "Echinochloa crus-galli",
    "measured metric": "log10 of GR80",
    "reported measurement": 1.00
  },
  {
    "entry smiles": "COc1cnc(OC)n2nc(NS(=O)(=O)c3c(OC(CF)CF)cccc3C(F)(F)F)nc12",
    "target desc": "Echinochloa crus-galli",
    "measured metric": "log10 of GR80",
    "reported measurement": 1.15
  },
  {
    "entry smiles": "COc1cnc(OC)n2nc(NS(=O)(=O)c3c(OCC(F)(F)F)cccc3C(F)(F)F)nc12",
    "target desc": "Echinochloa crus-galli",
    "measured metric": "log10 of GR80",
    "reported measurement": 1.28
  },
  {
    "entry smiles": "CCOc1cccc(C(F)(F)F)c1S(=O)(=O)Nc1nc2c(OC)cnc(OC)n2n1",
    "target desc": "Echinochloa crus-galli",
    "measured metric": "log10 of GR80",
    "reported measurement": 0.00
  },
  {
    "entry smiles": "COc1cnc(OC)n2nc(NS(=O)(=O)c3c(OCC(F)F)cccc3C(F)(F)F)nc12",
    "target desc": "Echinochloa crus-galli",
    "measured metric": "log10 of GR80",
    "reported measurement": 1.08
  }
]

----------
# System: Helianthus
# experiment description: Post-emergence herbicidal activity against Helianthus spp. compound treated as foliar application measured after 2 weeks
# Format: functional
Examples of compounds with documented GR80 follow.
measured metric: GR80 (ppm)

[
  {
    "entry smiles": "COc1cc2nc(NS(=O)(=O)c3c(Cl)cccc3Cl)nn2c(OC)n1",
    "target desc": "Helianthus",
    "measured metric": "GR80",
    "output unit": "ppm",
    "inequality symbol": ">",
    "reported measurement": 1000
  },
  {
    "entry smiles": "CCOc1cccc(C(F)(F)F)c1S(=O)(=O)Nc1nc2c(OC)cnc(OC)n2n1",
    "target desc": "Helianthus",
    "measured metric": "GR80",
    "output unit": "ppm",
    "inequality symbol": "=",
    "reported measurement": 2
  },
  {
    "entry smiles": "COc1cnc(OC)n2nc(NS(=O)(=O)c3cc(Cl)ccc3Cl)nc12",
    "target desc": "Helianthus",
    "measured metric": "GR80",
    "output unit": "ppm",
    "inequality symbol": "=",
    "reported measurement": 19
  },
  {
    "entry smiles": "COc1ncc(Cl)c2nc(NS(=O)(=O)c3c(Cl)cccc3Cl)nn12",
    "target desc": "Helianthus",
    "measured metric": "GR80",
    "output unit": "ppm",
    "inequality symbol": "=",
    "reported measurement": 1
  },
  {
    "entry smiles": "COc1cnc(OC)n2nc(NS(=O)(=O)c3ccccc3C(F)(F)F)nc12",
    "target desc": "Helianthus",
    "measured metric": "GR80",
    "output unit": "ppm",
    "inequality symbol": "=",
    "reported measurement": 13
  },
  {
    "entry smiles": "COc1cnc(OC)n2nc(NS(=O)(=O)c3cc(Cl)cc(Cl)c3)nc12",
    "target desc": "Helianthus",
    "measured metric": "GR80",
    "output unit": "ppm",
    "inequality symbol": "=",
    "reported measurement": 126
  },
  {
    "entry smiles": "COc1cnc(OC)n2nc(NS(=O)(=O)c3c(OCCF)cccc3C(F)(F)F)nc12",
    "target desc": "Helianthus",
    "measured metric": "GR80",
    "output unit": "ppm",
    "inequality symbol": "=",
    "reported measurement": 6
  },
  {
    "entry smiles": "COc1ncc(C)c2nc(NS(=O)(=O)c3c(Cl)cccc3Cl)nn12",
    "target desc": "Helianthus",
    "measured metric": "GR80",
    "output unit": "ppm",
    "inequality symbol": "<",
    "reported measurement": 15
  },
  {
    "entry smiles": "CCOc1cnc(OC)n2nc(NS(=O)(=O)c3c(Cl)cccc3Cl)nc12",
    "target desc": "Helianthus",
    "measured metric": "GR80",
    "output unit": "ppm",
    "inequality symbol": "=",
    "reported measurement": 216
  },
  {
    "entry smiles": "COc1ncc(F)c2nc(NS(=O)(=O)c3c(Cl)cccc3Cl)nn12",
    "target desc": "Helianthus",
    "measured metric": "GR80",
    "output unit": "ppm",
    "inequality symbol": "=",
    "reported measurement": 19
  },
  {
    "entry smiles": "COc1cnc(OC)n2nc(NS(=O)(=O)c3c(Cl)cccc3Cl)nc12",
    "target desc": "Helianthus",
    "measured metric": "GR80",
    "output unit": "ppm",
    "inequality symbol": "=",
    "reported measurement": 2
  }
]
